Data origin, for the record: patent US8716242B2

Entries and their GI50 at 48 h values follow.
# test_name: Cytotoxicity, MTT reduction assay, HELA cells
# Format: cell-based
# condition_description: human, HELA cells (Acc57), 12.5-50 μM
Numbered stars: 1 amine (or outer) side, 2 acyl side, 3 side chain; on linkers, the order of the positions; unused ones are H or OH. Bridge positions count the residues as written; N and C are the ends. Square brackets hold non-standard residues; d marks the D form. Peptide text beside a SMILES is read from it. * marks the point of attachment. X2 = CCCCCCCCCC[C@@H](N[*:1])C(=O)[*:2]; Myristoyl = CCCCCCCCCCCCCC(=O)*; Lauroyl = CCCCCCCCCCCC(=O)*; Dab = NCC[C@H](N)C(=O)O; X3 = CCCCCCCCCC*
readout_name: GI50 at 48 h

compound: CCCCCCCCCC[C@H]1NC(=O)[C@H](Cc2ccc(O)cc2)NC(=O)[C@@H]2CSSC[C@H](NC(=O)[C@H](C)NC(=O)[C@H](Cc3c[nH]cn3)NC(=O)[C@H](Cc3ccc(O)cc3)NC(=O)[C@@H]3CCCN3C(=O)[C@H]3CCCN3C(=O)[C@H](CCCCN)NC1=O)C(=O)N[C@@H](CCCNC(=N)N)C(=O)N[C@@H](C)C(=O)N1CCC[C@@H]1C(=O)N[C@@H](CCN)C(=O)N[C@@H](CCCNC(=N)N)C(=O)N[C@@H](Cc1ccc(O)cc1)C(=O)N2 [Ex. 9] (cyclo(YHACRA[dP][Dab]RYCY[X2]K[dP]P); disulfide 4-11)
readout_name: GI50 at 48 h
observed_value: > 13 µM

compound: CCCCCCCCCCCC(=O)NCC[C@@H]1NC(=O)[C@H]2CCCN2C(=O)[C@H](C)NC(=O)[C@H](CCCNC(=N)N)NC(=O)[C@@H]2CSSC[C@H](NC(=O)[C@H](Cc3ccc(O)cc3)NC(=O)[C@H](CCCNC(=N)N)NC1=O)C(=O)N[C@@H](Cc1ccc(O)cc1)C(=O)N[C@@H](CCC(N)=O)C(=O)N[C@@H](CCCCN)C(=O)N1CCC[C@@H]1C(=O)N1CCC[C@H]1C(=O)N[C@@H](Cc1ccc(O)cc1)C(=O)N[C@@H](Cc1c[nH]cn1)C(=O)N[C@@H](C)C(=O)N2 [Ex. 5] (cyclo(YHACRA[dP][Dab](Lauroyl)RYCYQK[dP]P); disulfide 4-11)
readout_name: GI50 at 48 h
observed_value: > 50 µM

compound: CCCCCCCCCCOC[C@@H]1NC(=O)[C@H](Cc2ccc(O)cc2)NC(=O)[C@@H]2CSSC[C@H](NC(=O)[C@H]([C@@H](C)O)NC(=O)[C@H](Cc3c[nH]cn3)NC(=O)[C@H](Cc3ccc(O)cc3)NC(=O)[C@@H]3CCCN3C(=O)[C@H]3CCCN3C(=O)[C@H](CCC(N)=O)NC1=O)C(=O)N[C@@H](CCCNC(=N)N)C(=O)NCC(=O)N1CCC[C@@H]1C(=O)N[C@@H](CCN)C(=O)N[C@@H](CCCNC(=N)N)C(=O)N[C@@H](Cc1ccc(O)cc1)C(=O)N2 [Ex. 30] (cyclo(YHTCRG[dP][Dab]RYCYS(X3)Q[dP]P); disulfide 4-11)
readout_name: GI50 at 48 h
observed_value: > 50 µM

compound: CCCCCCCCCCCCCC(=O)NCCCC[C@@H]1NC(=O)[C@H](Cc2ccc(O)cc2)NC(=O)[C@@H]2CSSC[C@H](NC(=O)[C@H](C)NC(=O)[C@H](Cc3c[nH]cn3)NC(=O)[C@H](Cc3ccc(O)cc3)NC(=O)[C@@H]3CCCN3C(=O)[C@H]3CCCN3C(=O)[C@H](CCCCN)NC1=O)C(=O)N[C@@H](CCCNC(=N)N)C(=O)N[C@@H](C)C(=O)N1CCC[C@@H]1C(=O)N[C@@H](CCN)C(=O)N[C@@H](CCCNC(=N)N)C(=O)N[C@@H](Cc1ccc(O)cc1)C(=O)N2 [Ex. 19] (cyclo(YHACRA[dP][Dab]RYCYK(Myristoyl)K[dP]P); disulfide 4-11)
readout_name: GI50 at 48 h
observed_value: > 32 µM

###

# test_name: Plasma stability in mouse plasma
# Type: in vitro ADME
# condition_description: mouse plasma, 37° C., 1440 min; read-out: mouse pl. cpd left at 1440 min
Bridge positions count the residues as written; N and C are the ends. Square brackets hold non-standard residues; d marks the D form. Peptide text beside a SMILES is read from it. * marks the point of attachment. Decanoyl = CCCCCCCCCC(=O)*; Dab = NCC[C@H](N)C(=O)O; Dodecyl = CCCCCCCCCCCC*
Entries and their remaining at 24 h, 10 μM values follow.
readout_name: remaining at 24 h, 10 μM (%)

compound: CCCCCCCCCC(=O)NCC[C@@H]1NC(=O)[C@H](Cc2ccc(O)cc2)NC(=O)[C@@H]2CSSC[C@H](NC(=O)[C@H](C)NC(=O)[C@H](Cc3c[nH]cn3)NC(=O)[C@H](Cc3ccc(O)cc3)NC(=O)[C@@H]3CCCN3C(=O)[C@H]3CCCN3C(=O)[C@H](CCCCN)NC1=O)C(=O)N[C@@H](CCCNC(=N)N)C(=O)N[C@@H](C)C(=O)N1CCC[C@@H]1C(=O)N[C@@H](CCN)C(=O)N[C@@H](CCCNC(=N)N)C(=O)N[C@@H](Cc1ccc(O)cc1)C(=O)N2 [Ex. 10] (cyclo(YHACRA[dP][Dab]RYCY[Dab](Decanoyl)K[dP]P); disulfide 4-11)
value_units: %
observed_value: 63

compound: CCCCCCCCCCCCOc1ccc(C[C@@H]2NC(=O)[C@H](CCCNC(=N)N)NC(=O)[C@H](CCN)NC(=O)[C@H]3CCCN3C(=O)[C@H](C)NC(=O)[C@H](CCCNC(=N)N)NC(=O)[C@@H]3CSSC[C@H](NC2=O)C(=O)N[C@@H](Cc2ccc(O)cc2)C(=O)N[C@@H](CCC(N)=O)C(=O)N[C@@H](CCCCN)C(=O)N2CCC[C@@H]2C(=O)N2CCC[C@H]2C(=O)N[C@@H](Cc2ccc(O)cc2)C(=O)N[C@@H](Cc2c[nH]cn2)C(=O)N[C@@H](C)C(=O)N3)cc1 [Ex. 7] (cyclo(YHACRA[dP][Dab]RY(Dodecyl)CYQK[dP]P); disulfide 4-11)
value_units: %
observed_value: 87

###

# test_name: in vivo
# Set-up: species or system male CD-1 mice
# condition_description: male, CD-1, mouse, iv, 1 mg/kg
Bridge positions count the residues as written; N and C are the ends. Square brackets hold non-standard residues; d marks the D form. Peptide text beside a SMILES is read from it. * marks the point of attachment. Lauroyl = CCCCCCCCCCCC(=O)*; Dab = NCC[C@H](N)C(=O)O
readout_name: half-life (h)

molecule: CCCCCCCCCCCC(=O)NCCCC[C@@H]1NC(=O)[C@H](Cc2ccc(O)cc2)NC(=O)[C@@H]2CSSC[C@H](NC(=O)[C@H](C)NC(=O)[C@H](Cc3c[nH]cn3)NC(=O)[C@H](Cc3ccc(O)cc3)NC(=O)[C@@H]3CCCN3C(=O)[C@H]3CCCN3C(=O)[C@H](CCCCN)NC1=O)C(=O)N[C@@H](CCCNC(=N)N)C(=O)N[C@@H](C)C(=O)N1CCC[C@@H]1C(=O)N[C@@H](CCN)C(=O)N[C@@H](CCCNC(=N)N)C(=O)N[C@@H](Cc1ccc(O)cc1)C(=O)N2 [Ex. 17] (cyclo(YHACRA[dP][Dab]RYCYK(Lauroyl)K[dP]P); disulfide 4-11)
readout_name: half-life
value_units: h
observed_value: 2

###

Entries and their remaining at 24 h, 10 μM values follow.
# test_name: Plasma stability in mouse plasma
# Format: in vitro ADME
# condition_description: mouse plasma, 37° C., 1440 min; read-out: mouse pl. cpd left at 1440 min
Bridge positions count the residues as written; N and C are the ends. Square brackets hold non-standard residues; d marks the D form. Peptide text beside a SMILES is read from it. * marks the point of attachment. Myristoyl = CCCCCCCCCCCCCC(=O)*; Lauroyl = CCCCCCCCCCCC(=O)*; Dab = NCC[C@H](N)C(=O)O

compound: CCCCCCCCCCCCCC(=O)NCCCC[C@@H]1NC(=O)[C@H](Cc2ccc(O)cc2)NC(=O)[C@@H]2CSSC[C@H](NC(=O)[C@H](C)NC(=O)[C@H](Cc3c[nH]cn3)NC(=O)[C@H](Cc3ccc(O)cc3)NC(=O)[C@@H]3CCCN3C(=O)[C@H]3CCCN3C(=O)[C@H](CCCCN)NC1=O)C(=O)N[C@@H](CCCNC(=N)N)C(=O)N[C@@H](C)C(=O)N1CCC[C@@H]1C(=O)N[C@@H](CCN)C(=O)N[C@@H](CCCNC(=N)N)C(=O)N[C@@H](Cc1ccc(O)cc1)C(=O)N2 [Ex. 19] (cyclo(YHACRA[dP][Dab]RYCYK(Myristoyl)K[dP]P); disulfide 4-11)
remaining at 24 h, 10 μM, %: 76
--
compound: CCCCCCCCCCCC(=O)NCC[C@@H]1NC(=O)[C@H](Cc2ccc(O)cc2)NC(=O)[C@@H]2CCCN2C(=O)[C@H]2CCCN2C(=O)[C@H](CCCCN)NC(=O)[C@H](CCC(N)=O)NC(=O)[C@H](Cc2ccc(O)cc2)NC(=O)[C@@H]2CSSC[C@H](NC(=O)[C@H](C)NC1=O)C(=O)N[C@@H](CCCNC(=N)N)C(=O)N[C@@H](C)C(=O)N1CCC[C@@H]1C(=O)N[C@@H](CCN)C(=O)N[C@@H](CCCNC(=N)N)C(=O)N[C@@H](Cc1ccc(O)cc1)C(=O)N2 [Ex. 1] (cyclo(Y[Dab](Lauroyl)ACRA[dP][Dab]RYCYQK[dP]P); disulfide 4-11)
remaining at 24 h, 10 μM, %: 77
